Kindly supply the reported growth values for the records listed here.
system: A498 renal; assay: NCI-60 one-dose screen, 48 h (100 = growth as untreated, 0 = no growth, -100 = all killed); conditions: 10 µM
This is part of a sample that, as a whole, favours compounds with a hit. Of some 83,000 tested, about 20% had one in any assay.
One number for each entry, in %.

{"columns": ["Compound", "Target entity", "growth [%]"],
 "data": [
  ["COc1cc(/C=C/C(=O)c2ccc(S(=O)(=O)NCCNc3nc(Nc4ccc(F)cc4)nc(N(C)C)n3)cc2)cc(OC)c1OC", "A498 renal", 81.3],
  ["CN1CCN(c2ccc(Nc3nc(N4CCN(S(=O)(=O)c5ccc(F)cc5)CC4)c4sccc4n3)cc2)CC1", "A498 renal", -94.3]
]}

Parameters: items (list). Returns: growth for each item.
1. O=C1c2ccccc2C(=O)c2c1c(C(=O)c1ccc(Cl)cc1)n1c2ccc2c3ccccc3ccc21
2. COc1ccc(C(=O)NC(=S)N2CCN(c3ncnc4c3cnn4-c3ccccc3)CC2)cc1
3. Cc1ccc2nc(-c3ccc(-c4nnc(SCC(=O)Nc5ccc(Br)cc5)o4)cc3)[nH]c2c1
4. N#Cc1c(-c2ccc(F)cc2)nc(SCc2ccc([N+](=O)[O-])cc2)nc1N1CCOCC1

Out:
144
115
83.4
64.4

Provide reported growth for each item, in the same order as listed.
1. CC(=O)Nc1nc(-c2ccc(N3CCN(C)CC3)c(NS(=O)(=O)c3ccc(C(F)(F)F)cc3)c2)cs1
2. CCOC(=O)C1=C(N)N(c2ccccc2)C2=C(C(=O)CC(C)(C)C2)C1c1ccccc1OC (stereo not given)

Out:
1: 52.3; 2: 98.7

Parameters: items (list). Returns: growth for each item.
1. CC(=O)Nc1ccc(-n2cnc3cc(-c4ccc(NS(C)(=O)=O)cc4)ccc32)cc1
2. O=C(O)CCCCCCCCCCN1C(=O)/C(=C/c2cnc(-c3ccc(Cl)cc3)s2)SC1=S

Out:
1: 86.5; 2: 83.2
